# subject-of-test: T1, Anti-CD28 Fab (SEQ ID NOs: 696, 697)
# T1 construct: In the phage ELISA the Fab was biotinylated and captured on neutravidin coated plates
# method-description: phage binding ELISA; Fab-coated wells pre-incubated with CD28 antigen as competitor;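 note: clonal phage supernatants added to wells preincubated with CD28 antigen or blocking buffer only, bound phage detected with HRP-conjugated anti-M13 antibody, buffer-only wells as control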
Where no end group is shown, it is not given here.
Could you please report measured Anti-CD28 Fab signal in the presence of CD28 for the items listed next?

IN: Give reported Anti-CD28 Fab signal in the presence of CD28 value for MCAAGAMYAWPTCL (peptide, not shown: large carriers, cysteine pairing not given here; also: fused to phage pIII protein, pIII and linker not given here, Clonal phage of the Peptide-92 optimisation library, tested as crude phage supernatant) [Phage-1475]
OUT: 0.09

IN: Give reported Anti-CD28 Fab signal in the presence of CD28 value for TCAAGASFPWPWCL (peptide, not shown: large carriers, cysteine pairing not given here; also: fused to phage pIII protein, pIII and linker not given here, Clonal phage of the Peptide-92 optimisation library, tested as crude phage supernatant) [Phage-1476]
OUT: 0.06

IN: Give reported Anti-CD28 Fab signal in the presence of CD28 value for MCSAGATYPWPMCL (peptide, not shown: large carriers, Clonal phage of the Peptide-92 optimisation library, tested as crude phage supernatant) [Phage-1484]
OUT: 0.06

IN: Give reported Anti-CD28 Fab signal in the presence of CD28 value for SCAAVFPYPWPPCF (peptide, not shown: large carriers, cysteine pairing not given here; also: fused to phage pIII protein, pIII and linker not given here, Clonal phage of the Peptide-92 optimisation library, tested as crude phage supernatant) [Phage-1477]
OUT: 0.06
